target: HLA-A*24:02; test: IEDB peptide-MHC binding, purified MHC/competitive/fluorescence; bounds were set here for any values at or beyond the usual limits of such assays; conditions: source organism: Vaccinia virus Copenhagen
readout: pIC50
Please report pIC50 as the negative decimal logarithm of the molar concentration, giving only the number.

TFALKKLII | 6.49

Attention now shifts to the item below.
# get_value(readout='pIC50', item= `SGTETKITF` ) 4.95

====

biological target: HLA-A*02:03; assay: IEDB peptide-MHC binding, purified MHC/competitive/radioactivity; filed as Kd, often an IC50 or EC50 that approximates it; bounds were set here for any values at or beyond the usual limits of such assays; details: source organism: Dengue virus 4 Dominica/814669/1981
readout: Kd
Just so you know, I need the unit written after the number.

What value of Kd has been recorded for this entry: `GLFTSLGKAV` 0.0187 µM
